Biological target: T1, IFNγR1 fused to the constant region of the antibody IgG1 (UniProt P15260 18-245, limits assumed)
T1 construct: also called IFNGR1; Interferon gamma receptor 1 fused to the Fc region; not shown: constant region (Fc) of IgG1, captured on the chip by an anti-human IgG antibody
T1 sequence (looked up): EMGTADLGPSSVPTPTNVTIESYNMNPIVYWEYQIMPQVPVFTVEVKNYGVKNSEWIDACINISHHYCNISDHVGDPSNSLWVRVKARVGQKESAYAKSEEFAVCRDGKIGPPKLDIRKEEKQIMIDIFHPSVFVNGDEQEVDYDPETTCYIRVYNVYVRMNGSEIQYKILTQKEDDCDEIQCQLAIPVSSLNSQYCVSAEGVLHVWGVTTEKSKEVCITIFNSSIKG
Assay: SPR (Biacore, CM5 chip), IFNγR1-IgG1 Fc captured by anti-human IgG, analyte injected

{"columns": ["BINDER", "koff"],
 "data": [
  ["rhIFN-γ-1b (wild-type recombinant human interferon-γ-1b) (ligand, also called wt (rhIFN-γ-1b); WT IFN-γ-1b (Actimmune)) MQDPYVKEAENLKKYFNAGHSDVADNGTLFLGILKNWKEESDRKIMQSQIVSFYFKLFKNFKDDQSIQKSVETIKEDMNVKFFNSNKKKRDDFEKLTNYSVTDLNVQRKAIHELIQVMAELSPAAKTGKRKRSQMLFRGR", "0.000701 s⁻¹"],
  ["Compound 3, mono-mPEG2-ru-MAL-20K-rhIFN-γ-1b-M135C (ring closed) (ligand, Cys135 thioether-linked to branched mPEG2-maleimide of about 20,000 daltons (mPEG2-MAL-20K), succinimide ring closed, also called mPEG2-MAL-20K-M135C-IFN-γ; M135C 20K branched (RC)) MQDPYVKEAENLKKYFNAGHSDVADNGTLFLGILKNWKEESDRKIMQSQIVSFYFKLFKNFKDDQSIQKSVETIKEDMNVKFFNSNKKKRDDFEKLTNYSVTDLNVQRKAIHELIQVMAELSPAAKTGKRKRSQCLFRGR", "0.00157 s⁻¹"],
  ["Compound 2, mono-mPEG-MAL-20K-rhIFN-γ-1b-M135C (ligand, Cys135 thioether-linked to linear mPEG-maleimide of about 20,000 daltons (mPEG-MAL-20K), succinimide ring closed, also called mPEG-MAL-20K-M135C-IFN-γ; M135C 20K linear) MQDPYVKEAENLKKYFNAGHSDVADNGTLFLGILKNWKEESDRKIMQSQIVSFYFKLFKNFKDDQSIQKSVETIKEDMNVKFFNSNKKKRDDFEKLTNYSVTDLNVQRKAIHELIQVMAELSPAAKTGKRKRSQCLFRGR", "0.00106 s⁻¹"],
  ["rhIFN-γ-1b-S66C cysteine mutein (ligand, also called IFN-γ-S66C; hIFN-γ S66C) MQDPYVKEAENLKKYFNAGHSDVADNGTLFLGILKNWKEESDRKIMQSQIVSFYFKLFKNFKDDQCIQKSVETIKEDMNVKFFNSNKKKRDDFEKLTNYSVTDLNVQRKAIHELIQVMAELSPAAKTGKRKRSQMLFRGR", "0.00137 s⁻¹"],
  ["Compound 1, mono-mPEG-MAL-10K-rhIFN-γ-1b-M135C (ligand, Cys135 thioether-linked to linear mPEG-maleimide of about 10,000 daltons (mPEG-MAL-10K), succinimide ring closed, also called mPEG-MAL-10K-M135C-IFN-γ; M135C 10K linear) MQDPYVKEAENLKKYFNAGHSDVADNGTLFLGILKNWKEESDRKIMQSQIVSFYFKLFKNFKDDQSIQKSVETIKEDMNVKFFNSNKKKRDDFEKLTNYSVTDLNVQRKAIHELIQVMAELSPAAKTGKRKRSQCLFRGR", "0.00221 s⁻¹"]
]}
